List of LAMBDA MAX (VISIBLE) values.
Assay: Photochromic response rates on an optical bench (polymer test squares)
Format: physicochemical
Conditions: wavelength of maximum absorption of the activated (colored) form, in a diethylene glycol bis(allyl carbonate) composition
Measurement Kind: LAMBDA MAX (VISIBLE)

compound="COc1ccc(C2(c3ccc(OC)cc3)C=Cc3c(CO)c(C)c4ccc(OC)cc4c3O2)cc1 [Example 1]" measured_result=520
compound="COc1ccc(C2(c3ccc(OC)cc3)C=Cc3c(CO)c(-c4ccccc4)c4ccccc4c3O2)cc1 [Example 2]" measured_result=506
compound="COc1ccc(C2(c3ccc(OC)cc3)C=Cc3c(COC(C)=O)c(-c4ccccc4)c4ccccc4c3O2)cc1 [Example 3]" measured_result=508
compound="COc1ccc(C2(c3ccc4c(c3)CCO4)C=Cc3c(C(=O)N4CCCCC4)c(C)c4ccc(OC)cc4c3O2)cc1 (stereo not shown) [Example 4]" measured_result=535

###

Test: Photochromic response rates on an optical bench (polymer test squares)
Format: physicochemical
Settings: UV exposure continued for 20 minutes; 75° F. (23.9° C.); test square
Measurement Kind: ΔOD@ SATURATION

compound=COc1ccc(C2(c3ccc(OC)cc3)C=Cc3c(CO)c(-c4ccccc4)c4ccccc4c3O2)cc1 measured_result=0.26
compound=COc1ccc(C2(c3ccc(OC)cc3)C=Cc3c(COC(C)=O)c(-c4ccccc4)c4ccccc4c3O2)cc1 measured_result=0.25
compound=COc1ccc(C2(c3ccc(OC)cc3)C=Cc3c(CO)c(C)c4ccc(OC)cc4c3O2)cc1 measured_result=0.42
compound="COc1ccc(C2(c3ccc4c(c3)CCO4)C=Cc3c(C(=O)N4CCCCC4)c(C)c4ccc(OC)cc4c3O2)cc1 (stereo not shown)" measured_result=0.65
